Tested on: parietal cells
protocol-details: Isolated Parietal Cell Assay, 14C-aminopyrine accumulation in histamine stimulated parietal cells
Assay type: cell-based, rabbit
study-conditions: Oryctolagus cuniculus, 20 min, read-out: IC50, inhibition of 14C-AP accumulation in the histamine stimulated parietal cell
Procedure: The isolated parietal cell assay was conducted using the procedures of Batzri, S., et al., Biochemica et Biophysica Acta 508, 328 (1978) and Soll, A. H., Am. J. Physiol. 238, G366 (1980). Basically, parietal cells were isolated from the fundic mucosa of rabbit stomachs by a four-stage collagenase digestion process. […] The pellets were solubilized with Protosol (New England Nuclear) and radioactivity determined by liquid scintillation spectrometry. […]
pIC50: −log10 of the molar value.

compound	pIC50
FC(F)(F)c1cccc(C23CNCC(O2)c2ccccc23)c1 (stereo not shown)	5.46
